target: hTRPV4 (full-length; hTRPV4WT) (Homo sapiens, UniProt Q9HBA0, S548V)
Sequence (Q9HBA0 whole entry S548V): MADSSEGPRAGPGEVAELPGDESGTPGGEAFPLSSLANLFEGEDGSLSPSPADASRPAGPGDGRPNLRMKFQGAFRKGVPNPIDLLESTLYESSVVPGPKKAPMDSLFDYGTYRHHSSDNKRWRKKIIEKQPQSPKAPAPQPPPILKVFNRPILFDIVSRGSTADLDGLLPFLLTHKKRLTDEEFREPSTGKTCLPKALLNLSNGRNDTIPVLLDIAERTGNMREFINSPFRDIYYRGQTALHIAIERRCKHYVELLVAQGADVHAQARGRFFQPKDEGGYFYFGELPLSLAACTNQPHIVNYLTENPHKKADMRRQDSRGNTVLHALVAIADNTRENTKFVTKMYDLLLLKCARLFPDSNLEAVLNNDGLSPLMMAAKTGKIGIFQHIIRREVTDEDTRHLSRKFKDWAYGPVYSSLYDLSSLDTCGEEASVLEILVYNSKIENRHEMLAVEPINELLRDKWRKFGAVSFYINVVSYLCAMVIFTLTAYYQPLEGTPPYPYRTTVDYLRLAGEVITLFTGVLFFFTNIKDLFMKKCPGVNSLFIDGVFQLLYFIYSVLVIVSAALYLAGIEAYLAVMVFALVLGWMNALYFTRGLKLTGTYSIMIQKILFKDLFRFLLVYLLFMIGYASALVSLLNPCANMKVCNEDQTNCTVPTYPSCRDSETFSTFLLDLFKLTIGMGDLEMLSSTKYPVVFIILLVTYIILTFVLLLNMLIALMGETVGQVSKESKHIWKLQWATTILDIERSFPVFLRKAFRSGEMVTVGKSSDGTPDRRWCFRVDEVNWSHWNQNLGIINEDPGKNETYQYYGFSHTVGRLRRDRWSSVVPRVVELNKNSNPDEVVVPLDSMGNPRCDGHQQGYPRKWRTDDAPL
assayText: calcium flux
quantityKind: EC50 (nM)
Your answer is read as nM, so omit the unit and give the number.

Input: Fill in: EC50 of CC(C)C[C@H](NC(=O)c1cc2ccccc2s1)C(=O)N1CCN(C(=O)[C@H](CO)NS(=O)(=O)c2ccc(Cl)cc2Cl)CC1 [GSK1016790A] is ___
Output: 110

----------
target: hTRPV4 (full-length; hTRPV4WT) (Homo sapiens, UniProt Q9HBA0, K535A)
Sequence (Q9HBA0 whole entry K535A): as the sequence (Q9HBA0 whole entry S548V) above, with K535A, V548S counted along it
assayText: calcium flux
quantityKind: EC50 (nM)
Use nM as the unit, but write only the number.

Input: Need EC50 of CC(C)C[C@H](NC(=O)c1cc2ccccc2s1)C(=O)N1CCN(C(=O)[C@H](CO)NS(=O)(=O)c2ccc(Cl)cc2Cl)CC1 [GSK1016790A] , thanks.
Output: 7.4
